System: SNB-19 CNS
Assay: NCI tumour cell line growth inhibition, 48 h
REPORTED ENDPOINT: GI50

Consider the worked cases shown below.
Task: Bench note: what GI50 did C=C(C)[C@@H]1CC[C@]2(COCCC#N)CC[C@]3(C)[C@H](CC[C@@H]4[C@@](C)(CCCNCCC#N)[C@H](C(=C)C)CC[C@]43C)[C@@H]12 show?
Output: 26400 nM

Task: Bench note: what GI50 did O=C1CC[C@H](N2C(=O)c3cccc4c(Cc5ccc(CN6CCOCC6)cc5)ccc2c34)C(=O)N1 show?
Output: > 100000 nM

Continuing:
Task: Bench note: what GI50 did CN(C)c1ccc(/C=C/c2ccnc3c(O)cccc23)cc1 show?
Output: 395 nM

Task: Bench note: what GI50 did C[C@]12CCc3nc(Nc4cccc(O)c4)sc3C1=CC[C@@H]1[C@@H]2CC[C@]2(C)/C(=N\NC(N)=S)CC[C@@H]12 show?
Output: 1880 nM

Task: Bench note: what GI50 did COC1C(CO)OC(n2c3ccccc3c3c4c(c5c6ccccc6[nH]c5c32)C(=O)NC4=O)C(O)C1O (stereo not given) show?
Output: 27.7 nM

----------
Test system: SN12C renal
Test: NCI tumour cell line growth inhibition, 48 h; in the data active = GI50 below about 0.43 µM; inactive = the rest
Your response should consist of one outcome taken from YES = active, NO = inactive

Task: Hello, I am checking results. What call was entered for O=C1c2[nH]cc(CNC3CN4CCC3CC4)c2C(=O)c2c1c(O)c1ccccc1c2O (configuration not stated) ?
Output: NO

Task: Hello, I am checking results. What call was entered for CCCCCCCC/C=C/CCCCCCCC1=NC(C)(C)CN1CC(C)O (configuration not stated) ?
Output: NO

Task: Hello, I am checking results. What call was entered for C[n+]1c(/C=C/c2c[nH]c3ccccc23)ccc2ccccc21 ?
Output: NO

Continuing:
Task: Hello, I am checking results. What call was entered for COc1ccc(N=Cc2c(O)ccc3c2oc2cc(Cl)c(O)c(Cl)c23)cc1 ?
Output: NO

Task: Hello, I am checking results. What call was entered for N.N.NCCCCCN.O=C([O-])CCl.O=C([O-])CCl.O=C([O-])CCl.O=C([O-])CCl.[Pt+4].[Pt+4] ?
Output: YES

Task: Hello, I am checking results. What call was entered for Cc1ccc(NC(=O)c2ccc(CN3CCN(C)CC3)cc2)cc1Nc1nccc(-c2cccnc2)n1 ?
Output: NO

Task: Hello, I am checking results. What call was entered for O=C(c1ccco1)c1nc2cc(C(F)(F)F)ccc2nc1C(F)(F)F ?
Output: NO

----------
Tested on: SW-620 colon
Test: NCI tumour cell line growth inhibition, 48 h
REPORTED ENDPOINT: TGI

Consider the worked cases shown below.
Task: Bench note: what TGI did CCCCCCCC/C=C/CCCCCCCC1=NC(C)(C)CN1CC(C)O (stereo not given) show?
Output: 3.34 µM

Task: Bench note: what TGI did Oc1ccc2c(c1)CCc1c-2n(CCN2CCOCC2)c2ccc(O)cc12 show?
Output: > 100 µM

Task: Bench note: what TGI did CC1=Nc2ccccc2NC(c2ccoc2)C1 (stereo not given) show?
Output: > 100 µM

Task: Bench note: what TGI did O=C(C=C1SCCS1)/C=C\c1ccc(Cl)cc1 show?
Output: > 100 µM

Turning now to a further molecule:
Task: Bench note: what TGI did Nc1cc(F)ccc1CC(=O)O show?
Output: > 100 µM
